All figures here come from ChEMBL document CHEMBL5385858.

Entries and their measured IC50 follow.
- Test system: MIA PaCa-2
- experiment.summary: Antiproliferative activity against human MIA PaCa-2 cells harboring KRAS G12C mutant assessed as inhibition of cell proliferation incubated for 3 days by CCK8 assay
- Type: functional, cell-based
- measurement.setup: MIA PaCa-2, 72 h
measured.endpoint: IC50 (nM)

>>> print(df.to_string())
                           smiles_structure  measured_endpoint  units_symbol  assay_value
0  C=C(F)C(=O)N1CCN(c2nc(OC[C@@H]3CCCN3C)nc3c2CCN(c2cccc4cccc(Cl)c24)C3)C[C@@H]1CC#N               IC50            nM           50
1  C=CC(=O)N1CCN(c2nc(OC[C@@]34CCCN3C[C@H](F)C4)nc3c2cc(-c2cccc4cccc(C)c24)n3C)C[C@@H]1CC#N               IC50            nM          870
